Reference source: patent US20240254138A1

- Test System: CDK7/cyclinH/MAT1 trimeric complex (Homo sapiens, UniProt P50613)
- Sequence (P50613 whole entry): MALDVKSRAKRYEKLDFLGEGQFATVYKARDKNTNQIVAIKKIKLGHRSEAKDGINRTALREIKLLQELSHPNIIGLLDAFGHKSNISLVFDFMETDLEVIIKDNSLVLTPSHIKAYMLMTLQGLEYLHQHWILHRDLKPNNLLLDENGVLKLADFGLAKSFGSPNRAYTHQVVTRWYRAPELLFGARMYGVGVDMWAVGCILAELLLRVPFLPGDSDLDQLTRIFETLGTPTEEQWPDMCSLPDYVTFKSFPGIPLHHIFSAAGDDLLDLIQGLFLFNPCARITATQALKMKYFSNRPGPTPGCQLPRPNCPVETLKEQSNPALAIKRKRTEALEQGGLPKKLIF
- Sequence (P51946 whole entry partner): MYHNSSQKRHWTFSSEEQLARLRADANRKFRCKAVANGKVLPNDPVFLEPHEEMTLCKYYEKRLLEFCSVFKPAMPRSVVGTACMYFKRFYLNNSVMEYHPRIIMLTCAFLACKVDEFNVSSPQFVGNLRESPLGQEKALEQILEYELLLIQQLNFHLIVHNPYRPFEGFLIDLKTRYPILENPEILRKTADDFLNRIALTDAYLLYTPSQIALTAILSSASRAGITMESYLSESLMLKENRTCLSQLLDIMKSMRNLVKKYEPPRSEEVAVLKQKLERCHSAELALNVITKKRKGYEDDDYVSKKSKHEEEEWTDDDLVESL
- Sequence (P51948 whole entry partner): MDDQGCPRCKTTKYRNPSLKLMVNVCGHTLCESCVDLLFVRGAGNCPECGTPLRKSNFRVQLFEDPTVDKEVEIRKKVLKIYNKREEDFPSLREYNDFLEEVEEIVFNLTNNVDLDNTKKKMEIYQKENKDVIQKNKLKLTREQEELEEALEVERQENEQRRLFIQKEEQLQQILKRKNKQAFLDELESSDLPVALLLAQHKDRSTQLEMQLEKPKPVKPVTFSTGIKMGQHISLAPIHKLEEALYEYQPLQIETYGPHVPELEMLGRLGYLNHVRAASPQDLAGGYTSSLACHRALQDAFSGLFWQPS
- Procedure Details: In vitro CDK7 assay, potency of irreversible covalent inhibitors (kinact/KI), coupled PK/LDH ADP readout at 340 nm
- Experimental Conditions: CDK7 (KI(μM)), […]; 1 mM ATP, room temperature; averaged values over all measurements
Attribute Measured: Ki (µM)

C=CC(=O)N1CC(N2CCC(c3ccc4c(c3)Nc3nccc(C5=CCOCC5)c3CO4)CC2)C1 ... 0.0555
C=CC(=O)N1CC(c2nc(C)c(-c3ccc4c(c3)Nc3nccc(N5CCOCC5)c3CO4)c(C)n2)C1 ... 0.0706
CC#CC(=O)N1CC(N2CCC(c3ccc4c(c3)Nc3nccc(N5CCOCC5)c3CO4)CC2)C1 ... 0.132
C=CC(=O)Nc1ccc(-c2ccc3c(c2)Nc2nccc(N4CCOCC4)c2CO3)cn1 ... 0.063
C=CC(=O)N1CC(N2CCCC(c3ccc4c(c3)Nc3nccc(N5CCOCC5)c3CO4)C2)C1 (stereo not drawn) ... 0.209
C=CC(=O)N1CC(c2ccc(-c3ccc4c(c3)Nc3nccc(N5CCOCC5)c3CO4)cn2)C1 ... 0.0497

I: C=CC(=O)N1CC(c2cc(-c3ccc4c(c3)Nc3nccc(N5CCOCC5)c3CO4)ccn2)C1
II: C=CC(=O)N1CC(N2CCC(c3ccc4c(c3)Nc3nccc(-c5cnc6[nH]ccc6c5)c3CO4)CC2)C1
III: C=CC(=O)N1CCC(C#Cc2ccc3c(c2)Nc2nccc(C4CCOCC4)c2CO3)CC1
Endpoint returns the given molecules ordered by ascending Ki. Please respond by ranking the labels in the order requested.
I, II, III
